From: ChEMBL document CHEMBL1201862

// log10 GI50 collected for HCT-15
Parameter value (number): base-10 log of GI50 in µM.

// below: answered compounds
[ask] So what does the record say about log10 GI50 for CN(CC(=O)Nc1ccccc1C(=O)O)c1ccccc1 ?
[reply] 1.83

[ask] Which value of log10 GI50 has been reported for C/C(=N/O)c1cccc(Nc2nc3ccc(Cl)cc3c3[nH]c4ccccc4c23)c1 in the records?
[reply] 0.16

[ask] For O=C1Nc2ccc(Br)cc2/C1=N/Nc1ccc([N+](=O)[O-])cc1 , what is its reported log10 GI50?
[reply] 1.43

[ask] Can you look up the measured log10 GI50 of CC(=O)C(=Cc1cn(C)c(=O)n(C)c1=O)C(C)=O for me?
[reply] 1.97

[ask] For the compound CCCCCCn1c(SC)nc(COC(=O)NC)c1COC(=O)NC , what log10 GI50 is on record?
[reply] 1.51

List the reported log10 GI50 of each compound below.
1. CC(C)(C)c1ccc(OCCOc2ccc(C(C)(C)C)cc2N)c(N)c1
2. Cc1cc(S(=O)(=O)NC2=Nc3cccc(F)c3CN2)c(S)cc1Cl
3. O=C(C[n+]1ccccc1)N/N=C(\C(=O)NC1=C(Cl)C(=O)c2ccccc2C1=O)c1c(O)c2ccc(O)cc2oc1=O
4. COc1cc(C2c3cc4c(cc3OC(NCCO)C2C)OCO4)cc(OC)c1O (configuration not stated)

[reply]
1. 1.57
2. 1.84
3. 0.38
4. 0.54
